Target: UniProtKB P08908
Sequence (P08908 whole entry): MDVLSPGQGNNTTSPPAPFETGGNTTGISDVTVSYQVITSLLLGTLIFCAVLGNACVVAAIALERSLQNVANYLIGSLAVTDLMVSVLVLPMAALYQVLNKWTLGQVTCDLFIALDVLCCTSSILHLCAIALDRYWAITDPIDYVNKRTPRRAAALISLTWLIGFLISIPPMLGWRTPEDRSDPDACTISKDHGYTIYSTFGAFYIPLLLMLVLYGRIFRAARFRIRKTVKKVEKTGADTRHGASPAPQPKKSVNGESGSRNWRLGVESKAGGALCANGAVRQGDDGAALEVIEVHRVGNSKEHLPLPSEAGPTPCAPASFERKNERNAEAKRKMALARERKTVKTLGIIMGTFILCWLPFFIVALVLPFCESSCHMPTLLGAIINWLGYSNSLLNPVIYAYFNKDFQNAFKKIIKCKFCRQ
Assay: radioligand competition, [3H]8-OH-DPAT
Assay type: binding
Conditions: Cheng-Prusoff
The threshold is inclusive: pKi, human cloned receptor / 5-HT1A of exactly 8 counts as true; values below receive false.

# example entries with known answers
                                   compound  group
0  COc1ccc(OCCNCC2COCC(c3ccccc3)(c3ccccc3)O2)cc1 (centres unmarked) [compound 9]  false
1  COc1cccc(OCCNCC2COCC(c3ccccc3)(c3ccccc3)O2)c1 (centres unmarked) [compound 7]   true
2  Oc1ccc(OCCNCC2COCC(c3ccccc3)(c3ccccc3)O2)cc1 (centres unmarked) [compound 10, 10]  false

Continue with the compound presented below.
Prompt: Identify whether the reported pKi, human cloned receptor / 5-HT1A of the following compound is 8 or greater: COc1ccc(OCCNCC2COCC(c3ccccc3)(c3ccccc3)O2)cc1OC (centres unmarked) [compound 12]
Completion: false
